Test system: Strep. pyogenes
Assay: in vivo activity in mice infected with a lethal inoculum of Strep. pyogenes
Details: Streptococcus pyogenes, oral, multiple dosing, read-out: IN VIVO Strep. pyogenes, number of survivors among the treated animals, PO (data in parenthesis)

compound | target desc | responders at 50 mg/kg (%)
COCCNC(=O)c1c(CS(=O)(=O)CCCN2CCCCC2)[n+]([O-])c2ccccc2[n+]1[O-] [NHCH2 CH2 OCH3; drawing 25; H] | Strep. pyogenes | 100
CCN(CC)CCCS(=O)(=O)Cc1c(C(N)=O)[n+]([O-])c2ccccc2[n+]1[O-] | Strep. pyogenes | 50
CCN(CC)CCCS(=O)(=O)Cc1c(C(=O)N(C)C)[n+]([O-])c2ccccc2[n+]1[O-] | Strep. pyogenes | 10
CCCCNC(=O)c1c(CSCCO)[n+]([O-])c2ccccc2[n+]1[O-] | Strep. pyogenes | 10
NC(=O)c1c(CS(=O)(=O)CCCN2CCCCC2)[n+]([O-])c2ccccc2[n+]1[O-] [NH2; drawing 24; H] | Strep. pyogenes | 40
CNC(=O)c1c(CS(=O)(=O)CCCN2CCCCC2)[n+]([O-])c2ccccc2[n+]1[O-] [NHCH3; drawing 23; H] | Strep. pyogenes | 70
CNC(=O)c1c(CS(=O)(=O)CCO)[n+]([O-])c2ccccc2[n+]1[O-] | Strep. pyogenes | 40
